Biological target: TLR7 (Homo sapiens (Human), UniProt Q9NYK1)
Sequence (Q9NYK1 27-1049): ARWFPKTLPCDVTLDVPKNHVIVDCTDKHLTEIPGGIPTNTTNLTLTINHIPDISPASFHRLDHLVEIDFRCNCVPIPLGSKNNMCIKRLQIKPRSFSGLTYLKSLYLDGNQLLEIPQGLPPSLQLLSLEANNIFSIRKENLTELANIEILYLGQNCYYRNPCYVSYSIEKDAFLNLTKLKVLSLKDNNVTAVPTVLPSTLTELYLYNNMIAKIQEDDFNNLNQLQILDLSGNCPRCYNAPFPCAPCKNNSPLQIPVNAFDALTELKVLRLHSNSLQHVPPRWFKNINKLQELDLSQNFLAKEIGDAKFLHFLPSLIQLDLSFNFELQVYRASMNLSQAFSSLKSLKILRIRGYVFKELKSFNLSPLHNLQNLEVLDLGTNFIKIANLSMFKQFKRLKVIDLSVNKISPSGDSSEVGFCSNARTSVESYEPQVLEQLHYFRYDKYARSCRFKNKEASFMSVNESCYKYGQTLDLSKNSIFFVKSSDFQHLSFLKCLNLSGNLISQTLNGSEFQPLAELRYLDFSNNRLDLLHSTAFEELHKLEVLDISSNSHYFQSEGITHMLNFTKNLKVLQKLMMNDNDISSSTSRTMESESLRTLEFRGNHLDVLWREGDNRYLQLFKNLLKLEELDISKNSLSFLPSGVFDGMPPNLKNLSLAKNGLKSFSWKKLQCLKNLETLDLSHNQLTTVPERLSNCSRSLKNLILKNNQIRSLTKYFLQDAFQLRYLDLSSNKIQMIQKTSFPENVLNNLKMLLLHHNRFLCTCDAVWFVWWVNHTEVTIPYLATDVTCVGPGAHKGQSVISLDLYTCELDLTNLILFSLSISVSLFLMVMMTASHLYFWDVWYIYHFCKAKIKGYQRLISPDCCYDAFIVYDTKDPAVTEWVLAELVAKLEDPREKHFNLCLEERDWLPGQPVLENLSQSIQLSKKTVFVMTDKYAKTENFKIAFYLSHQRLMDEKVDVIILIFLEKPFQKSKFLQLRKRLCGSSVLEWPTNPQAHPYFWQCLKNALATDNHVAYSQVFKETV
Assay: TLR7 human peripheral blood mononuclear cell (PBMC) cell-based assay (GS-986 as agonist; IL-6 and IFNα readout)
Details: human PBMCs, TLR7 agonist GS-986 at 400 nM, 6 hours, antagonist potency; read-out: TLR-7 EC50
result.type: EC50 (nM)

Cc1c(-c2[nH]c3sc(C4CCC(N5CC[C@H](F)C5)CC4)c(C)c3c2C(C)C)cn2ncnc2c1C (stereo partly drawn) [Example 302]
0.1

(P) Cc1c(-c2[nH]c3sc(C4C[C@@H]5C[C@H]4CC5NC4COC4)c(C)c3c2C(C)C)cn2ncnc2c1C (stereo partly drawn) [Example 253]
(Q) Cc1c(-c2[nH]c3sc(C4CCN(C5CCNC5=O)CC4)c(C)c3c2C(C)C)cn2ncnc2c1C (single isomer, unassigned) [Example 291]
Identify the item whose EC50 is the smaller number: P or Q Bench note: the answer is the label of the chosen record.
P

====

Biological target: TLR7 (Homo sapiens (Human))
Assay: TLR7 human peripheral blood mononuclear cell (PBMC) cell-based assay (GS-986 as agonist; IL-6 and IFNα readout)
Settings: human PBMCs, TLR7 agonist GS-986 at 400 nM, 6 hours, antagonist potency; read-out: TLR-7 EC50
pEC50: −log10 of the molar value.
result.type: pEC50

Study these solved cases before continuing.
Cc1c(C2CCNCC2)sc2[nH]c(-c3ccc(C#N)c4nccnc34)c(C(C)C)c12
7.94
Cc1c(-c2[nH]c3sc(C4CC5(CC(N)C5)C4)c(C)c3c2C(C)C)cn2ncnc2c1C (centres unmarked)
9.70
Cc1c(-c2[nH]c3sc(C4CCC(C(=O)N5CCNCC5)CC4)c(C)c3c2C(C)C)cn2ncnc2c1C (centres unmarked)
9.85
Cc1c(-c2[nH]c3sc([C@@H]4C[C@@H]5C[C@H]4CN5CC#N)c(C)c3c2C(C)C)cn2ncnc2c1C
9.89
Cc1c(C2CCN(CCO)CC2)sc2[nH]c(-c3cc(C)c4ncnn4c3)c(C(C)C)c12
8.90
Cc1c(-c2[nH]c3sc(C4CCN(C5CCNC5=O)CC4)c(C)c3c2C(C)C)cn2ncnc2c1C (single isomer, unassigned) [Example 290]
9.19

(P) Cc1c(-c2[nH]c3sc(C4CC(n5cc(C6COCCN6)nn5)C4)c(C)c3c2C(C)C)cn2ncnc2c1C (single isomer, unassigned) [Example 244]
(Q) Cc1noc(C)c1CN1C[C@@H]2C[C@H]1C[C@H]2c1sc2[nH]c(-c3cn4ncnc4c(C)c3C)c(C(C)C)c2c1C
Input pair: P , Q . Output: entry with lower pEC50. Field: selected label. Fill in the label of the entry you choose.
P

====

Molecular target: TLR8 (Homo sapiens (Human))
Sequence (Q9NR97 27-1041): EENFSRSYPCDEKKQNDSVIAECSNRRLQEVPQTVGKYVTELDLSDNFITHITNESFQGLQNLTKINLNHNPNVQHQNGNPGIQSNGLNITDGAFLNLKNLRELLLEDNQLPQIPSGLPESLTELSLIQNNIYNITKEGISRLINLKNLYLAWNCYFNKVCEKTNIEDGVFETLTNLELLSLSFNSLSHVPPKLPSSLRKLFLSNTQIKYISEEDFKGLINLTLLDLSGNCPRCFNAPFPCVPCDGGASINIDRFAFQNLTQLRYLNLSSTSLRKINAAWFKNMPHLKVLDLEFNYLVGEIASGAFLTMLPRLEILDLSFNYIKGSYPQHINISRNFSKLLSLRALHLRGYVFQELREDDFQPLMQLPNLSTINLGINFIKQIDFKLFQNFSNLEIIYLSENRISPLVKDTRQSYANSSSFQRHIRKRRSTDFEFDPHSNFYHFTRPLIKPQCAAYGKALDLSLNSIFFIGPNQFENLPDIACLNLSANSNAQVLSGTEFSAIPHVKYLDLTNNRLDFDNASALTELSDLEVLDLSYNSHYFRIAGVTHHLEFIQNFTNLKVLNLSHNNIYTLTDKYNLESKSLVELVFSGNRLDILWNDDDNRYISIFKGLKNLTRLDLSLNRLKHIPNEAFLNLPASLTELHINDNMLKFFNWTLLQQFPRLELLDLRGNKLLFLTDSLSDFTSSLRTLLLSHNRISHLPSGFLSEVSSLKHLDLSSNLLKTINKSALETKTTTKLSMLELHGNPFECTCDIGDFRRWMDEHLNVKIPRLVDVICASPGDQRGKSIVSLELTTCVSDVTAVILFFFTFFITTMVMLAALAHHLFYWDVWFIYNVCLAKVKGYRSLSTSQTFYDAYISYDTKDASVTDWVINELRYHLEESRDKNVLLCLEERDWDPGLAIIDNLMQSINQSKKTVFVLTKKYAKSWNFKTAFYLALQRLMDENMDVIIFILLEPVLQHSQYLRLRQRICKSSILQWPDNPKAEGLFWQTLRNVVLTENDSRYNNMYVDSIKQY
Assay: TLR8 human peripheral blood mononuclear cell (PBMC) cell-based assay (Compound A as agonist; TNFα and IL12p40 readout)
Details: human PBMCs, TLR8 agonist Compound A at 800 nM, 6 hours, antagonist potency; read-out: TLR-8 EC50
Method: After counting, the cell density was adjusted to 2 million cells/ml and incubated for 1 hour at 37° C., 5% CO2 for recovery. […] The level of cytokines (TNFα and IL12p40) in the supernatant was measured by electrochemiluminescence immunoassays (Mesoscale Discovery) following manufacturer's recommended protocols.
result.type: EC50 (nM)

Some entries whose results are on file:
Cc1cc(-c2[nH]c3sc([C@H]4C[C@@]5(CCN(CC(N)=O)C5)C4)c(C)c3c2C(C)C)cn2ncnc12
1.74
Cc1cc(-c2[nH]c3sc(C4CCN(C(=O)[C@H]5COCCN5)CC4)c(CO)c3c2C(C)C)cn2ncnc12
27.3
Cc1c(-c2[nH]c3sc(C4CCN(C(=O)[C@H]5CO[C@@H](C)CN5)CC4)c(C)c3c2C(C)C)cn2ncnc2c1C
41.2
Cc1c(-c2[nH]c3sc(C4CCN(C(=O)[C@H]5CO[C@H](C)CN5)CC4)c(C)c3c2C(C)C)cn2ncnc2c1C
13.6
Cc1c(C2CCN(C(=O)CN(C)C)CC2)sc2[nH]c(-c3cc(C)c4ncnn4c3)c(C(C)C)c12
9.29

(A) Cc1c(-c2[nH]c3sc(C4COC5(CCN(CC(N)=O)CC5)C4)c(C)c3c2C(C)C)cn2ncnc2c1C (centres unmarked) [Example 80]
(B) Cc1c(-c2[nH]c3sc([C@@H]4C[C@@H]5C[C@H]4CN5CC(=O)NCCO)c(C)c3c2C(C)C)cn2ncnc2c1C
When their EC50 values are compared, which is larger, A or B ? Provide the label of your selected option as the answer.
A
(A: 15.2 nM, B: 0.15 nM)

====

Biological target: TLR7 (Homo sapiens (Human), UniProt Q9NYK1)
Test: TLR7 human peripheral blood mononuclear cell (PBMC) cell-based assay (GS-986 as agonist; IL-6 and IFNα readout)
Conditions: human PBMCs, TLR7 agonist GS-986 at 400 nM, 6 hours, antagonist potency; read-out: TLR-7 EC50
Procedure: Human peripheral blood mononuclear cells (PBMCs) consist of lymphocytes, monocytes and dendritic cells that express TLR7, TLR8 and TLR9. […] After counting, the cell density was adjusted to 2 million cells/ml and incubated for 1 hour at 37° C., 5% CO2 for recovery. […] The level of cytokines (IL-6 and IFNα) in the supernatant was measured by electrochemiluminescence immunoassays (Mesoscale Discovery) following manufacturer's recommended protocols.
pEC50: −log10 of the molar value.
result.type: pEC50

Sample answers from the record:
Cc1c(-c2[nH]c3sc([C@@H]4C[C@@H]5C[C@H]4CN5CC(=O)NC45CC(O)(C4)C5)c(C)c3c2C(C)C)cn2ncnc2c1C
9.31
CCc1c(C2CCN(C(=O)[C@H]3COCCN3)CC2)sc2[nH]c(-c3cc(C)c4ncnn4c3)c(C(C)C)c12
9.82
Cc1c(C23CNCC2C3)sc2[nH]c(-c3cc(C)c4ncnn4c3)c(C(C)C)c12 (stereo not shown)
9.70
Cc1c(C2CCNCC2)sc2[nH]c(-c3cc(C)c4nccn4c3)c(C(C)C)c12
10.15
Cc1c(C2CCN(CC(N)=O)CC2)sc2[nH]c(-c3ccc(C#N)c4ncccc34)c(C(C)C)c12
9.09
Cc1c(C2CCN(C(=O)[C@H]3COC(C)(C)CN3)CC2)sc2[nH]c(-c3cc(C)c4ncnn4c3)c(C(C)C)c12
9.82
Cc1c(-c2[nH]c3sc(C4CCN(C(=O)[C@H]5CN6CCCC6CO5)CC4)c(C)c3c2C(C)C)cn2ncnc2c1C (stereo partly shown)
10.00
Cc1cc(-c2[nH]c3sc([C@H]4C[C@]5(CCCN(CC(N)=O)C5)C4)c(C)c3c2C(C)C)cn2ncnc12
8.64
Cc1c(C2CC3(C2)CN(C(=O)[C@H]2COCCN2)C3)sc2[nH]c(-c3cc(C)c4ncnn4c3)c(C(C)C)c12
9.57
Cc1c(C2CCN(CC(N)=O)CC2)sc2[nH]c(-c3cc(C)c4nnnn4c3)c(C(C)C)c12
8.71

(a) Cc1c(-c2[nH]c3sc([C@@H]4C[C@@H]5C[C@H]4CN5)cc3c2C(C)C)cn2ncnc2c1C
(b) Cc1c(-c2[nH]c3sc(C4CCC5(CC4)CNCCO5)c(C)c3c2C(C)C)cn2ncnc2c1C (single isomer, unassigned) [Example 293]
Among a and b , whose measured pEC50 is the smaller figure? Which one? Tell me its label.
b

(I) Cc1c(-c2[nH]c3sc(C4CC(C(=O)N5CCNCC5)C4)c(C)c3c2C(C)C)cn2ncnc2c1C (stereo not shown) [Example 151]
(II) Cc1c(C2C3CC2CN(CC(N)=O)C3)sc2[nH]c(-c3cc(C)c4ncnn4c3)c(C(C)C)c12 (stereo not shown)
Field: entry with larger pEC50 (options I / II ). Identify your pick by its label.
I

====

Target: TLR8 (Homo sapiens (Human))
Test: TLR8 human peripheral blood mononuclear cell (PBMC) cell-based assay (Compound A as agonist; TNFα and IL12p40 readout)
Conditions: human PBMCs, TLR8 agonist Compound A at 800 nM, 6 hours, antagonist potency; read-out: TLR-8 EC50
result.type: EC50 (nM)

Cc1c(-c2[nH]c3sc(-c4ccc(C5CCNCC5)cc4)c(C)c3c2C(C)C)cn2ncnc2c1C [Example 111]
6.58
Cc1c(-c2[nH]c3sc([C@@H]4C[C@@H]5C[C@H]4CN5C(=O)[C@@H]4C[C@H](F)CN4)c(C)c3c2C(C)C)cn2ncnc2c1C [Example 149]
9.53
Cc1c(-c2[nH]c3sc(C4CCN(C(=O)[C@@H]5NCCO[C@H]5C)CC4)c(C)c3c2C(C)C)cn2ncnc2c1C [Example 281]
13.8
Cc1c(C2CCN(C(=O)[C@H]3CCCN3C)CC2)sc2[nH]c(-c3cc(C)c4ncnn4c3)c(C(C)C)c12 [Example 18]
10.9
Cc1c(C23CNCCC2C3)sc2[nH]c(-c3cc(C)c4ncnn4c3)c(C(C)C)c12 (centres unmarked) [Example 194]
9.52

(P) Cc1c(-c2[nH]c3sc(-c4ccc(C5CNCCO5)cc4)c(C)c3c2C(C)C)cn2ncnc2c1C (centres unmarked) [Example 115]
(Q) Cc1c(-c2ccc(N3CCNCC3)cc2)sc2[nH]c(-c3cc(C)c4ncnn4c3)c(C(C)C)c12 [Example 23]
Could you check which of P and Q has a smaller value for EC50? Your answer should be the label attached to the chosen record.
P

Numbers sourced from patent US11661431B2.
